- Measured on: T1, Src-phosphorylated C3G-AAAP (human, UniProt Q13905-1 4-1077, P283A | P284A | L286 | P287 | P289A | P453A | P454A | L456A | P457A | K459A | …, phosphotyrosines from phosphorylation in vitro with Src (sites not given))
- T1 construct: human C3G isoform a, residues 4-1077; only P4 kept, P1, P2 and P3 mutated to Ala; also called pC3G-AAAP; source: E. coli BL21 (DE3), purified; phosphorylated in vitro with the recombinant kinase domain of Src, then SEC; not shown: His, N-terminal, cleaved; Halo, N-terminal, cleaved
- T1 sequence (looked up): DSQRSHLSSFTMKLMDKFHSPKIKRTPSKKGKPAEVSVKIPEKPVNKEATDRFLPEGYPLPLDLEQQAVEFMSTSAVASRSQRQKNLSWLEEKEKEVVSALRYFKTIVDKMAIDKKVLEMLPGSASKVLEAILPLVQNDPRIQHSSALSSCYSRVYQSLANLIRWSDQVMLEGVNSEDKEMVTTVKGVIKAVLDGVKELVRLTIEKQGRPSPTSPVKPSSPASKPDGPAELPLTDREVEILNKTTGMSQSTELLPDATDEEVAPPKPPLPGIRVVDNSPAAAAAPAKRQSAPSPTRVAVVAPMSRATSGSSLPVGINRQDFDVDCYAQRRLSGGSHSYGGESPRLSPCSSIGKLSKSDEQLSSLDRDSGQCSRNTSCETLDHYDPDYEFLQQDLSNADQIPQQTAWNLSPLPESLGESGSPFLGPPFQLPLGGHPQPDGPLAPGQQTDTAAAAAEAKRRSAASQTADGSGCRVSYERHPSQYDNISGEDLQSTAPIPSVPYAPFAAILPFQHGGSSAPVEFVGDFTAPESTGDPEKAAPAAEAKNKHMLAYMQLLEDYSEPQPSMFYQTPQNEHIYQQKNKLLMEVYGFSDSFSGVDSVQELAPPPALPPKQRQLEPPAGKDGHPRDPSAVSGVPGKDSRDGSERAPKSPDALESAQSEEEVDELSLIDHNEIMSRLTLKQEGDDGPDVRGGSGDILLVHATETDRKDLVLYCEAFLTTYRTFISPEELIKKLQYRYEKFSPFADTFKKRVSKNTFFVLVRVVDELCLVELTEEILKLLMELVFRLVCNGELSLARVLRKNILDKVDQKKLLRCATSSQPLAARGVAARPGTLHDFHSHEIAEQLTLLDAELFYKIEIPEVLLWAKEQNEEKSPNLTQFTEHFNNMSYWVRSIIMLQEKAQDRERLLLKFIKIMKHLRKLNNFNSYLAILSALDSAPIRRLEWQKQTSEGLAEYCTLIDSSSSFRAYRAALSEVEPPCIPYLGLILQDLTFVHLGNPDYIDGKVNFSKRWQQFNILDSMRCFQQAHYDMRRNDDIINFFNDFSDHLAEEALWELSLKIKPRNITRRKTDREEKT
- Protocol summary: ITC; single-PRM mutant of C3G in the cell titrated with CrkL or CrkL-SH3N, 25 °C, 300 mM NaCl, pH 7.5; SEDPHAT, 1:1 heteroassociation model; N is the competent fraction of C3G
- Test context: both partners purified
Measurement kind: Kd (nM)
Report the value in nM with no unit label.

Data request, read-out Kd, for CrkL-SH3N (domain or fragment, human, UniProt P46109 125-182, looked up, human CrkL, SH3N domain, residues 125-182, in pETEV15b; source: E. coli BL21 (DE3), purified (IMAC, TEV digestion, SEC); not shown: His, N-terminal, cleaved) LEYVRTLYDFPGNDAEDLPFKKGEILVIIEKPEEQWWSARNKDGRVGMIPVPYVEKLV
2400
